B1: Cyclin-F, residues 28 to 80; numbered along this chain, P41002 (parent)
chain: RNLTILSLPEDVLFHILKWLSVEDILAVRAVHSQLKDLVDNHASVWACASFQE

variants of: B1; experiment: abundance fitness (aPCA) (normalised: wild type 0, dead -1); higher = more abundant; growth selection in yeast, the domain comes from the species named; conditions: Homo sapiens
I'd be grateful if you could share measured abundance fitness for these entries.
Please state the value as a number alone, without comment.

Consider V45E . Its measured abundance fitness is 0.362

E53M yielded abundance fitness of -0.39

abundance fitness measured on S50D = 0.029

response.value for F51W (field: abundance fitness) = -0.279

Per the records, this variant ( L3D ) has abundance fitness equal to -0.598

The variant N41I showed abundance fitness equal to -0.455

# variant A47G ; its abundance fitness = 0.193

Notebook: V45K , abundance fitness read as 0.181

abundance fitness recorded for this variant, S33E , is -0.675

So, W46C ? Its abundance fitness was -0.4

In plain terms, T4L has a documented abundance fitness of -0.836

abundance fitness measured on D11V = -0.269

Input S33M . Output abundance fitness: -0.72

According to the records, this variant S33C displays abundance fitness of -0.828

Consider W46M . Its measured abundance fitness is -0.27

// sample L26C , its abundance fitness was -0.256

Please fill in: abundance fitness reported for S50P = -0.1

Record D37T , field abundance fitness: 0.076

The variant K36I showed abundance fitness equal to -0.986

Kindly note the recorded abundance fitness for R29T , which is -0.909

Just so you know, measured abundance fitness for N2F came out at -0.407

Record S21D . Reported abundance fitness: 0.135
